src = patent US20250051344A1

# MEASURED_ON: SMARCA2 (Homo sapiens)
# Construct: endogenous in cells
# Sequence (P51531 whole entry, species assumed): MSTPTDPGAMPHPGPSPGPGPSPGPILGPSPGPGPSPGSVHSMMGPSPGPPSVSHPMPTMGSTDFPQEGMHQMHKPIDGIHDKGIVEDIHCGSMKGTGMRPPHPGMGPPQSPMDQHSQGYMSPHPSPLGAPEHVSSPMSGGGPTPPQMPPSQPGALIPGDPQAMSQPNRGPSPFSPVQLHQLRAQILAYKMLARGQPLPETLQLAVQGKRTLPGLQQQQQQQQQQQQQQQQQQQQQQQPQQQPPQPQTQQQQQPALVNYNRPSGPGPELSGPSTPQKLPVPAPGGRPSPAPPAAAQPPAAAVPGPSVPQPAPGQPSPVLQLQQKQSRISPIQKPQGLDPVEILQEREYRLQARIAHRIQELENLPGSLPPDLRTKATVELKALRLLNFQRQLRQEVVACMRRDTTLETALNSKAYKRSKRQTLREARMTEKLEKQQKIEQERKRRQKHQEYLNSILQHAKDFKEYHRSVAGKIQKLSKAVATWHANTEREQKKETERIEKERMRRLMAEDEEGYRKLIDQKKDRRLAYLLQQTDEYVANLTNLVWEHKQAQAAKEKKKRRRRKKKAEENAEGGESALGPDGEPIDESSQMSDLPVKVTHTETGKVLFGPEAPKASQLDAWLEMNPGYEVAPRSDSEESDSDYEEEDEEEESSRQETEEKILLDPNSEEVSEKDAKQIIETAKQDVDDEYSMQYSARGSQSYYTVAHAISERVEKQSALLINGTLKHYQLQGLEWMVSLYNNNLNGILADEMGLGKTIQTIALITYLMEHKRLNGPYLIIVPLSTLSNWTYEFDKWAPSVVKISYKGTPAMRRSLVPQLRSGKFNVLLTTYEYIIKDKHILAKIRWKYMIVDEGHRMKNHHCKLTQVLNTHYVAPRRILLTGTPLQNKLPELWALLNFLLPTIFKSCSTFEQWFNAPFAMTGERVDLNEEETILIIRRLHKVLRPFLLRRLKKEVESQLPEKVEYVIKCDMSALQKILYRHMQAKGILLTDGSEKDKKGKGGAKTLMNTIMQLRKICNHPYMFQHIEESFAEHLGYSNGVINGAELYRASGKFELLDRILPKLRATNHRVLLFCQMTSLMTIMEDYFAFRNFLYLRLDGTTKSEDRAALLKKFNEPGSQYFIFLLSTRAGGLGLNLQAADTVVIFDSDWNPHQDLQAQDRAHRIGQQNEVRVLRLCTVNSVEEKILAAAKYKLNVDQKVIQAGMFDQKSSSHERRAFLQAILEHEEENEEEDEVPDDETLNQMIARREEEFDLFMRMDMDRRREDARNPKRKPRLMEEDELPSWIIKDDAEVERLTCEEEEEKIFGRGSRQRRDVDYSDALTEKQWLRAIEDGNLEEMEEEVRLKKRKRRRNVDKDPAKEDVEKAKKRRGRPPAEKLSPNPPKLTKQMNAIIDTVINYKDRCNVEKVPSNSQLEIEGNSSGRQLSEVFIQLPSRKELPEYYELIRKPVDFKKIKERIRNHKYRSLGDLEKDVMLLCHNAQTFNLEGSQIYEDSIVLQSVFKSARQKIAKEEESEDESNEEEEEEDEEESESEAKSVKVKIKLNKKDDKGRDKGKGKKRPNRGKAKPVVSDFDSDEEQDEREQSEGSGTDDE
# TEST_DETAILS: SMARCA2 Cellular Degradation Assay (Western blot analysis on Jess platform)
# Assay type: cell-based
# TEST_CONTEXT: ratio DC50 SMARCA4 / DC50 SMARCA2
OUTCOME_MEASURE: Fold Selectivity SMARCA4/2
// return a plain number; no unit text

Report measured Fold Selectivity SMARCA4/2; entry is O=C1CC[C@H](c2ccc(N3CCC(CN4CCC5CN(C(=O)C6(c7ccccc7)CCN(c7cnnc(-c8ccccc8O)c7)CC6)C5C4)CC3)cc2)C(=O)N1 (stereo partly drawn) [Example 51] 1

Report measured Fold Selectivity SMARCA4/2; entry is CC1CC2CN(CC3CCN(c4ccc([C@H]5CCC(=O)NC5=O)cc4)CC3)CC2N1C(=O)C1(c2ccccc2)CCN(c2cnnc(-c3ccccc3O)c2)CC1 (stereo partly drawn) [Example 50] 73.54

Report measured Fold Selectivity SMARCA4/2; entry is O=C1CC[C@H](c2ccc(N3CCC(C(=O)N4CCC5(CC4)CN(CC4(c6ccccc6)CCN(c6cnnc(-c7ccccc7O)c6)CC4)C5)CC3)cc2)C(=O)N1 [Example 164] 2
